Values were extracted from patent US20230119539A1.

ASSAY PROTOCOL: pH stability of quenched linker-payloads in buffers (LCMS)
Assay type: physicochemical
ASSAY SETUP: pH 5.0, day 7
OUTCOME MEASURE: P: percentage of budesonide released from the linker-payloads (%)
Give the value, in units of %, as a plain number.

Answered examples (3):
COMPOUND	EXPERIMENTAL RESULT
CCCC1O[C@@H]2C[C@H]3[C@@H]4CCC5=CC(=O)C=C[C@]5(C)[C@H]4[C@@H](O)C[C@]3(C)[C@]2(C(=O)COCNC(=O)CNC(=O)OCc2ccc(O[C@@H]3O[C@H](CO)[C@@H](O)[C@H](O)[C@H]3O)c(C(=O)NCCNC(=O)COC3C#CCCCCC3)c2)O1 (some centres unmarked)	0
CCCC1OC2CC3C4CCC5=CC(=O)C=CC5(C)C4C(O)CC3(C)C2(C(=O)COC2CCN2C(=O)CNC(=O)CCOCCOCCOCCOCCNC(=O)CCC(=O)N2Cc3ccccc3-c3c(nnn3CCOCCOCCOCCOCCC(=O)NCCS(=O)(=O)O)-c3ccccc32)O1 (mixture of isomers)	0
CCCC1OC2CC3C4CCC5=CC(=O)C=CC5(C)C4C(O)CC3(C)C2(C(=O)COCN2CCCC(NC(=O)OCc3ccc(NC(=O)C(CCCNC(N)=O)NC(=O)C(NC(=O)CCOCCOCCOCCOCCNC(=O)CCC(=O)N4Cc5ccccc5-c5c(nnn5CCOCCOCCOCCOCCC(=O)NCCS(=O)(=O)O)-c5ccccc54)C(C)C)cc3)C2=O)O1 (mixture of isomers)	0

Q. Give the measured P: percentage of budesonide released from the linker-payloads of CCCC1O[C@@H]2C[C@H]3[C@@H]4CCC5=CC(=O)C=C[C@]5(C)[C@H]4[C@@H](O)C[C@]3(C)[C@]2(C(=O)COCN(C)C(=O)CNC(=O)OCc2ccc(NC(=O)[C@H](CCCNC(N)=O)NC(=O)[C@@H](NC(=O)CCOCCOCCOCCOCCNC(=O)CCC(=O)N3Cc4ccccc4-c4c(nnn4CCOCCOCCOCCOCCC(=O)NCCS(=O)(=O)O)-c4ccccc43)C(C)C)cc2)O1 (some centres unmarked) .
A. 0

Q. Give the measured P: percentage of budesonide released from the linker-payloads of CCCC1O[C@@H]2C[C@H]3[C@@H]4CCC5=CC(=O)C=C[C@]5(C)[C@H]4[C@@H](O)C[C@]3(C)[C@]2(C(=O)COC2CCCN2C(=O)CNC(=O)CCOCCOCCOCCOCCNC(=O)CCC(=O)N2Cc3ccccc3-c3c(nnn3CCOCCOCCOCCOCCC(=O)NCCS(=O)(=O)O)-c3ccccc32)O1 (some centres unmarked) .
A. 28
